# Read-out: Cytochrome P450 2B6 (Homo sapiens) (UniProt P20813)
# EXPERIMENTAL PROTOCOL: CLD_CYP2B6_48hr: CellzDirect (CLD) Gene Expression Assay for xenobiotic metabolism (CYP2B6) at 48 hours (AID 2283699);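 note: actives raise transcript level above DMSO so potency reflects induction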
Results filed as inconclusive are left out. Calls of active or inactive are those of the source. Rule for the calls: active = hit-call score of the fitted dose curve at least 0.9, where 1 is the maximum; inconclusive = response in the unintended direction; inactive = score below 0.9.
Please reply with one of these outcomes: TRUE for active, FALSE for inactive

# input Any idea what this test logged for `C[N+]1(C)CCCCC1` ?
# output FALSE

# input Any idea what this test logged for CCOP(=O)(SC(C)CC)N1CCSC1=O (stereo not given) ?
# output TRUE

# input Any idea what this test logged for `CCOP(=S)(OCC)SCCSCC` ?
# output TRUE

# input Any idea what this test logged for CC(C1CC1)C(O)(Cn1cncn1)c1ccc(Cl)cc1 (stereo not given) ?
# output TRUE

# input Any idea what this test logged for `CCNc1nc(Cl)nc(NC(C)(C)C#N)n1` ?
# output TRUE

The reported numbers originate from PubChem BioAssay (EPA / NIEHS).
